# self-splicing fitness (ln) per entry
# measurementDescription: self-splicing fitness, log relative to wild type (ln ratio); higher = more splicing; Tetrahymena group I intron in knt gene, E. coli kanamycin selection, DiMSum; sequences stand for … in CUCUCU…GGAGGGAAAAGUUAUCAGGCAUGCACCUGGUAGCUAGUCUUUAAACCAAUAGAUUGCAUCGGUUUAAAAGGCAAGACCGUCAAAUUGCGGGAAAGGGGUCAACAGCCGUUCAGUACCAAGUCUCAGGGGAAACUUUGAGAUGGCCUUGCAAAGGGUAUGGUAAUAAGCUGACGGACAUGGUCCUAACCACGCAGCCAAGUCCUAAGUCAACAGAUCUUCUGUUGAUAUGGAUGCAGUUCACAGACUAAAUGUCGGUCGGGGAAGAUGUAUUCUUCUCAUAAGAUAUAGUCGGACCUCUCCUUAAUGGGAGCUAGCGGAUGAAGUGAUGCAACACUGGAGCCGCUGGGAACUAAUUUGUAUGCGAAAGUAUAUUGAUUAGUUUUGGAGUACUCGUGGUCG;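 note: selection with 25 µg/mL kanamycin versus none on LB agar overnight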
# studyConditions: 37 °C

[
  {
    "querySequence": "UUUAAGCAAUAUUACGACUC",
    "reportedResult": -0.881
  }
]

Q: Item under review: GCUGAGCAAUAUUACGAACG . Reported self-splicing fitness (ln)?
Result: -1.12

Q: What do you get for UAAUAGCAAUAUUACGAGAU ?
Result: -2.38

Q: What do you get for UCUGAGCAAUAUUACGCAAA ?
Result: -1.27

Q: What do you get for GACAAGCAAUAUUACGUUAG ?
Result: -3.34

Q: What do you get for UAGGAGCAAUAUUACGUAUG ?
Result: -1.71
